As a worked illustration, we turn to pIC50 data collected for EGFR (Homo sapiens (Human)).
// scale note: pIC50 = -log10(conc_M); give the bare number

Known pIC50 results, listed for orientation:
>  <STRUCTURE_SMILES>
Clc1cc(Nc2ncnc3cnc(N4CCN5CCOC[C@H]5C4)nc23)ccc1Oc1ccn2ncnc2c1

>  <ASSAY_SYSTEM>
EGFR (Homo sapiens (Human))
Sequence (P00533 25-1210): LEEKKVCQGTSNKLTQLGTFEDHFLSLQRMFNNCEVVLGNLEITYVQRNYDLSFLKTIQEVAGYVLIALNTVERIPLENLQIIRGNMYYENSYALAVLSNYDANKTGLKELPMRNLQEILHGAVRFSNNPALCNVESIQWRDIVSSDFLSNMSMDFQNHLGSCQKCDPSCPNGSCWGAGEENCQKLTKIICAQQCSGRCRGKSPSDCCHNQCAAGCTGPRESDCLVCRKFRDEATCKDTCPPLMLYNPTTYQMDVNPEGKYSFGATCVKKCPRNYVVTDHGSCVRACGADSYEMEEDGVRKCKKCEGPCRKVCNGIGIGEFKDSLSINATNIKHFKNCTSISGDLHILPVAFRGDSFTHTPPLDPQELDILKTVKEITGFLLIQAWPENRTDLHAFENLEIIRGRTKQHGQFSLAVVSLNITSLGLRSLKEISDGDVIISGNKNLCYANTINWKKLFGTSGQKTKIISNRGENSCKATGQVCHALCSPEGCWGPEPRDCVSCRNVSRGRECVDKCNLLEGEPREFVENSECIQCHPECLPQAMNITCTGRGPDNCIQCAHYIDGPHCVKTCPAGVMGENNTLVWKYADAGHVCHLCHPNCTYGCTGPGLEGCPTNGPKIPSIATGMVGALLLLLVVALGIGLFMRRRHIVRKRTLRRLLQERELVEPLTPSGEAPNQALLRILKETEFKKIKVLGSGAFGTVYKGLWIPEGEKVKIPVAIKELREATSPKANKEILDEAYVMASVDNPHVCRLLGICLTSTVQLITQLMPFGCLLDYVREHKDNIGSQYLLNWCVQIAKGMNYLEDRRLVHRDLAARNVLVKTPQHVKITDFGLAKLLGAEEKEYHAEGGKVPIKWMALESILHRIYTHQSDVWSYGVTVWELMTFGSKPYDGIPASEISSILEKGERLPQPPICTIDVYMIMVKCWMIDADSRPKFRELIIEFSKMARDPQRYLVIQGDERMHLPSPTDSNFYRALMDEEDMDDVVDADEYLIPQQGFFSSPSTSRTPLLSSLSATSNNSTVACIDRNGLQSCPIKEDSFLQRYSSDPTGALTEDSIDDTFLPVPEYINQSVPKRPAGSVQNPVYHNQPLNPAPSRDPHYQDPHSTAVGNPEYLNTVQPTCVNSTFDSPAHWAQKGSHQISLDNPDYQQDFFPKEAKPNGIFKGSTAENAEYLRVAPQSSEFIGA

>  <RESULT>
5.39

$$$$
>  <STRUCTURE_SMILES>
Cc1c(Oc2ccn3ncnc3c2)ccc(Nc2ncnc3cnc(N[C@H]4CNC[C@H]4F)nc23)c1F

>  <ASSAY_SYSTEM>
EGFR (Homo sapiens (Human))

>  <RESULT>
5.36

$$$$

# ---- query compound ----
Reported EGFR (Homo sapiens (Human)) pIC50 for item Cc1cc(Nc2ncnc3cnc(N4CCC[C@@](C)(O)C4)nc23)ccc1Oc1ccc2c(c1)ncn2C was 6.05

Where these numbers come from: patent US11834453B2
